Test system: 323965-272-R-J2-PDC complex spheroid viability;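 also: spheroids exposed to agents for seven days before readout; percent of DMSO vehicle control wells so 100% = untreated growth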
protocol.summary: Anticancer human tumor 323965-272-R-J2-PDC patient-derived pancreatic carcinoma cell line growth inhibition [CLK]
applied.conditions: second compound 3.16 µM; first compound 0.0316 µM; hits give low values

molecule	viability, T/C
Nc1ccn(C2OC(CO)C(O)C2(F)F)c(=O)n1 (stereo not given) + CN1CCN(c2cc(C(=O)Nc3cc4cc(-c5cnn(C)c5)ccc4cn3)ccn2)CC1	3.79%
COc1ccc([C@@H](O)c2cc(-c3ncnc4cc(N5CCOCC5)ccc34)c(F)cc2Cl)nn1 + CN1CCN(c2cc(C(=O)Nc3cc4cc(-c5cnn(C)c5)ccc4cn3)ccn2)CC1	4.01%
COc1cccc2c1C(=O)c1c(O)c3c(c(O)c1C2=O)CC(O)(C(=O)CO)CC3OC1CC(N)C(O)C(C)O1 (stereo not given) + CNC(=O)c1ccc(Nc2nc(OC3CCCC3)c3c(-c4ccc5nc(C)oc5c4)c[nH]c3n2)c(OC)c1	30.6%
CC(Nc1ccc2c(c1)OCCn1cc(N3C(=O)OCC3C(F)F)nc1-2)C(N)=O (stereo not given) + CNC(=O)c1ccc(Nc2nc(OC3CCCC3)c3c(-c4ccc5nc(C)oc5c4)c[nH]c3n2)c(OC)c1	34.8%
CC1(C)CCC(CN2CCN(c3ccc(C(=O)NS(=O)(=O)c4ccc(NCC5CCOCC5)c([N+](=O)[O-])c4)c(Oc4cnc5[nH]ccc5c4)c3)CC2)=C(c2ccc(Cl)cc2)C1 + CNC(=O)c1ccc(Nc2nc(OC3CCCC3)c3c(-c4ccc5nc(C)oc5c4)c[nH]c3n2)c(OC)c1	39.5%
CCCS(=O)(=O)Nc1ccc(F)c(C(=O)c2c[nH]c3ncc(-c4ccc(Cl)cc4)cc23)c1F + CN1CCN(c2cc(C(=O)Nc3cc4cc(-c5cnn(C)c5)ccc4cn3)ccn2)CC1	4.04%
Nc1ccccc1NC(=O)c1ccc(CNC(=O)OCc2cccnc2)cc1 + CNC(=O)c1ccc(Nc2nc(OC3CCCC3)c3c(-c4ccc5nc(C)oc5c4)c[nH]c3n2)c(OC)c1	50.7%
Cn1ncnc1[C@H]1c2n[nH]c(=O)c3cc(F)cc(c23)N[C@@H]1c1ccc(F)cc1 + CNC(=O)c1ccc(Nc2nc(OC3CCCC3)c3c(-c4ccc5nc(C)oc5c4)c[nH]c3n2)c(OC)c1	51.5%
CCN1CCN(Cc2ccc(Nc3ncc(F)c(-c4cc(F)c5nc(C)n(C(C)C)c5c4)n3)nc2)CC1 + CN1CCN(c2cc(C(=O)Nc3cc4cc(-c5cnn(C)c5)ccc4cn3)ccn2)CC1	3.88%
C=CC(=O)N1CCN(c2nc(=O)n(-c3c(C)ccnc3C(C)C)c3nc(-c4c(O)cccc4F)c(F)cc23)C(C)C1 (stereo not given) + CNC(=O)c1ccc(Nc2nc(OC3CCCC3)c3c(-c4ccc5nc(C)oc5c4)c[nH]c3n2)c(OC)c1	26.9%
